Sourced from ChEMBL document CHEMBL3784945

Assay: Lipophilicity, log D of the compound by HPLC analysis
Type: physicochemical
Conditions: read-out: logD
measurement kind: logD
Hey, just send me the number, nothing else.

Consider the following illustrative entries.
{"columns": ["compound", "observed value"],
 "data": [
  ["Cc1c(O)ccc2c1C(=O)N(Cc1ccccc1-c1ccc(F)c(F)c1)C2C(=O)NC(C)(C)C (stereo unspecified)", 4.6],
  ["COCCOCCNC(=O)C1c2cc(F)ccc2C(=O)N1CC(C)c1ccc(Cl)cc1 (racemic)", 3.6],
  ["CC(c1ccccc1)N1C(=O)c2ccccc2C1C(=O)NCc1ccccc1 (racemic)", 3.5],
  ["CC(C)(CN1C(=O)c2ccccc2C1C(=O)NCCCC(F)F)c1ccc(F)cc1 (stereo unspecified)", 4.1],
  ["CC(C)(C)NC(=O)C1c2ccccc2C(=O)N1Cc1ccccc1-c1ccc(F)cc1 (stereo unspecified)", 4.8]
]}

Query CC(C)(C)NC(=O)C1c2ccccc2C(=O)N1Cc1cc(F)ccc1-c1ccc(F)cc1 (single isomer, unassigned; enantiomer 1) yields logD of 5.3

Query CC(C)(C)NC(=O)C1c2ccc(C#N)cc2C(=O)N1Cc1ccccc1-c1ccccc1 (racemic) yields logD of 4.7

Query CCCCNC(=O)C1c2ccccc2C(=O)N1CC(C)(O)c1ccc(Cl)cc1 (stereo unspecified) yields logD of 3.5

Query Cc1c(NS(C)(=O)=O)ccc2c1C(=O)N(Cc1ccccc1-c1ccccc1)C2C(=O)NC(C)(C)C (racemic) yields logD of 4.3

Query Cc1c(O)ccc2c1C(=O)N(Cc1ccccc1-c1ccc(F)cc1)C2C(=O)NC(C)(C)C (stereo unspecified) yields logD of 4.5

Query CCCCNC(=O)C1c2ccccc2C(=O)N1CC(C)c1ccc(Cl)cc1 (racemic) yields logD of 4.5

---

Molecular target: Cytochrome P450 3A4 (Homo sapiens)
Sequence (P08684 whole entry): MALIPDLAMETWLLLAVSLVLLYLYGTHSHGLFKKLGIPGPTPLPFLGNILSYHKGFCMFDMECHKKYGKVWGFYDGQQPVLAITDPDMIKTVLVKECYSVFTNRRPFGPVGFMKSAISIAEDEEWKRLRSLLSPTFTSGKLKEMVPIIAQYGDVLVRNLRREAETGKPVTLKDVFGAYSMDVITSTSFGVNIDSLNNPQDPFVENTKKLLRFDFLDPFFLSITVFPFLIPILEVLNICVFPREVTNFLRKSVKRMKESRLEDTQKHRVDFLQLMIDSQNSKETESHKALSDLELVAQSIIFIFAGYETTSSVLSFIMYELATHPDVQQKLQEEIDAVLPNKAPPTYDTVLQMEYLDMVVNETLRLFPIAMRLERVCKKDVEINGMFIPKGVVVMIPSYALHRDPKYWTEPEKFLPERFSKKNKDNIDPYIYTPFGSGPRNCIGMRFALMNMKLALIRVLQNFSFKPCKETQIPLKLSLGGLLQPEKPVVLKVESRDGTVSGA
Known IC50 of a selection of molecules

{"columns": ["molecule", "test system", "observed value"],
 "data": [
  ["CCCNC(=O)C1c2ccccc2C(=O)N1CC(C)c1ccc(Cl)cc1 (single isomer, unassigned; isomer 1)", "Cytochrome P450 3A4 (Homo sapiens)", "> 50 µM"]
]}

Could you now look at the following molecule, please?
Query CC(C)(CN1C(=O)c2ccccc2C1C(=O)NCCCF)c1ccc(Cl)cc1 (single isomer, unassigned; enantiomer 1) yields IC50 of > 50 µM

---

Known pIC50 of a selection of compounds
Target: Potassium voltage-gated channel subfamily A member 5 (Homo sapiens, UniProt P22460)
Sequence (P22460 whole entry): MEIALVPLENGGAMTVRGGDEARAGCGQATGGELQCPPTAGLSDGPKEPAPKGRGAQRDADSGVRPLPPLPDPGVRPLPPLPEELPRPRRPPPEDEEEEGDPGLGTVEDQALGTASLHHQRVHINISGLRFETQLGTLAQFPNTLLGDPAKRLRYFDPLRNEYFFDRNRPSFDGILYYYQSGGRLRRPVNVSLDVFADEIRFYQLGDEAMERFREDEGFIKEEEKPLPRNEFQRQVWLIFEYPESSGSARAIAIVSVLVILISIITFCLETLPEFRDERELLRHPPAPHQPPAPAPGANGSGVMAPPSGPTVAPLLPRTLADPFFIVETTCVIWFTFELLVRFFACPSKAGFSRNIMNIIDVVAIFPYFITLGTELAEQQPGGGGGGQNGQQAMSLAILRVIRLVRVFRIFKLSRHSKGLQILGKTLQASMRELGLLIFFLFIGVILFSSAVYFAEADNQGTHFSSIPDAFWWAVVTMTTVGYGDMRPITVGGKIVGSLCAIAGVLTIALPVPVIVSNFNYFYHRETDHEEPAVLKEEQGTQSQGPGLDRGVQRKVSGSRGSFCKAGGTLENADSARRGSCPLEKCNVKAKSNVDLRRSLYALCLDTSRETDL
Assay: Inhibition of human Kv1.5 channel by QPatch-clamp method
Units for pIC50: none; it is -log10 of a concentration expressed in mol/L.

Consider the following illustrative entries.
{"columns": ["compound", "pIC50"],
 "data": [
  ["CC(C)(CN1C(=O)c2ccccc2C1C(=O)NCCCF)c1ccc(Cl)cc1 (single isomer, unassigned; enantiomer 2)", 6.00],
  ["CC(C)(C)NC(=O)C1c2ccccc2C(=O)N1Cc1cc(F)ccc1-c1ccc(F)cc1 (single isomer, unassigned; enantiomer 2)", 6.05],
  ["CCCCNC(=O)C1c2ccccc2C(=O)N1CC(C)(O)c1ccc(Cl)cc1 (stereo not given)", 5.92],
  ["Cc1c(O)ccc2c1C(=O)N(Cc1ccccc1-c1ccc(F)c(F)c1)C2C(=O)NC(C)(C)C (stereo not given)", 5.46]
]}

Query CCCNC(=O)C1c2ccccc2C(=O)N1CC(C)c1ccc(Cl)cc1 (single isomer, unassigned; isomer 2) yields pIC50 of 6.15

Query CC(C)(C)NC(=O)C1c2ccccc2C(=O)N1Cc1ccccc1-c1ccc(F)c(F)c1 (single isomer, unassigned; enantiomer 2) yields pIC50 of 5.96

Query Cc1c(O)ccc2c1C(=O)N(Cc1ccccc1-c1ccccc1)C2C(=O)NC(C)(C)C (single isomer, unassigned) yields pIC50 of 5.89

Query COc1ccc2c(c1C)C(=O)N(Cc1ccccc1-c1ccccc1)C2C(=O)NC(C)(C)C (racemic) yields pIC50 of 6.10

Query CC(C)(C)NC(=O)C1c2ccccc2C(=O)N1Cc1cc(F)ccc1-c1ccccc1 (single isomer, unassigned; enantiomer 1) yields pIC50 of 5.85

---

Known CLH of a selection of compounds
Tested on: Liver microsome
Experiment: Intrinsic clearance in human liver microsomes
Type: ADME
Settings: microsomes
Answer format: numeric, µL/min/mg implied, no suffix.

Consider the following illustrative entries.
{"columns": ["compound", "unit spec", "observed value"],
 "data": [
  ["Cc1c(O)ccc2c1C(=O)N(Cc1ccccc1-c1ccccc1)C2C(=O)NC(C)(C)C (single isomer, unassigned; enantiomer 2)", "µL/min/mg", 24],
  ["CCCNC(=O)C1c2ccccc2C(=O)N1CC(C)c1ccc(Cl)cc1 (single isomer, unassigned; isomer 2)", "µL/min/mg", 183],
  ["Cc1c(O)ccc2c1C(=O)N(Cc1ccccc1-c1ccccc1)C2C(=O)NC(C)(C)C (single isomer, unassigned)", "µL/min/mg", 20]
]}

Could you now look at the following compound, please?
Query CC(C)(C)NC(=O)C1c2ccccc2C(=O)N1Cc1ccc(F)cc1-c1ccccc1 (single isomer, unassigned) yields CLH of 62

---

Assay: Clearance in iv dosed dog
Type: ADME, organism-based, Canis lupus familiaris
Details: in vivo
measurement kind: clearance (mL/min/kg)
Answer format: numeric, mL/min/kg implied, no suffix.

{"columns": ["compound", "clearance, mL/min/kg"],
 "data": [
  ["CCCNC(=O)C1c2ccccc2C(=O)N1CC(C)c1ccc(Cl)cc1 (single isomer, unassigned; isomer 1)", 6]
]}

Could you now look at the following compound, please?
Query CC(C)(CN1C(=O)c2ccccc2C1C(=O)NCCCF)c1ccc(Cl)cc1 (single isomer, unassigned; enantiomer 1) yields clearance of 18

---

pIC50, Voltage-gated inwardly rectifying potassium channel KCNH2 (Homo sapiens), per-entry values.
pIC50: −log10 of the molar value.

Consider the following illustrative entries.
{"columns": ["compound", "pIC50"],
 "data": [
  ["CC(C)(C)NC(=O)C1c2ccccc2C(=O)N1Cc1ccccc1-c1ccccc1 (racemic)", 4.21],
  ["Cc1c(O)ccc2c1C(=O)N(Cc1ccccc1-c1ccc(F)cc1)C2C(=O)NC(C)(C)C (configuration not stated)", "< 4.49"],
  ["Cc1c(O)ccc2c1C(=O)N(Cc1ccccc1-c1ccccc1)C2C(=O)NC(C)(C)C (single isomer, unassigned)", "< 4.49"],
  ["CC(C)(C)NC(=O)C1c2ccccc2C(=O)N1Cc1ccc(F)cc1-c1ccccc1 (single isomer, unassigned)", "< 4.49"]
]}

Query CC(C)(C)NC(=O)C1c2ccccc2C(=O)N1Cc1cc(F)ccc1-c1ccccc1 (single isomer, unassigned; enantiomer 2) yields pIC50 of < 4.48

Query CC(C)(C)NC(=O)C1c2c(O)cccc2C(=O)N1Cc1ccccc1-c1ccccc1 (racemic) yields pIC50 of 4.55

Query CC(C)(C)NC(=O)C1c2ccccc2C(=O)N1Cc1ccccc1-c1ccc(F)c(F)c1 (single isomer, unassigned; enantiomer 2) yields pIC50 of < 4.51

---

Experiment: Lipophilicity, log D of the compound by HPLC analysis
Assay type: physicochemical
Details: read-out: logD
Known logD of a selection of compounds

Consider the following illustrative entries.
{"columns": ["compound", "logD"],
 "data": [
  ["COc1ccc2c(c1)C(=O)N(Cc1ccccc1-c1ccccc1)C2C(=O)NC(C)(C)C (racemic)", 4.9],
  ["CC(C)(C)NC(=O)C1c2ccccc2C(=O)N1Cc1ccc(F)cc1-c1ccc(F)cc1 (stereo unspecified)", 5],
  ["CC(C)(CN1C(=O)c2ccccc2C1C(=O)NCC(F)F)c1ccc(F)cc1 (stereo unspecified)", 3.7]
]}

Query CC(C)(C)NC(=O)C1c2ccccc2C(=O)N1Cc1cc(F)ccc1-c1ccccc1 (single isomer, unassigned; enantiomer 1) yields logD of 5.2

Query CCCNC(=O)C1c2ccccc2C(=O)N1CC(C)c1ccc(Cl)cc1 (single isomer, unassigned; isomer 1) yields logD of 4.2

Query CC(C)(C)NC(=O)C1c2ccc(NS(C)(=O)=O)cc2C(=O)N1Cc1ccccc1-c1ccccc1 (racemic) yields logD of 4

Query CCCCNC(=O)C1c2ccccc2C(=O)N1CC(C)c1ccc(F)cc1 (racemic) yields logD of 4.1

---

Experiment: Solubility of the compound
Type: physicochemical
measurement kind: solubility

Query CC(C)(CN1C(=O)c2ccccc2C1C(=O)NCCCF)c1ccc(Cl)cc1 (single isomer, unassigned; enantiomer 1) yields solubility of 83 µM

---

pIC50, Voltage-gated inwardly rectifying potassium channel KCNH2 (Homo sapiens, UniProt Q12809), per-entry values.
pIC50: −log10 of the molar value.

{"columns": ["molecule", "test system", "pIC50"],
 "data": [
  ["CCCCNC(=O)C1c2ccccc2C(=O)N1CC(C)c1ccc(Cl)cc1 (racemic)", "Voltage-gated inwardly rectifying potassium channel KCNH2 (Homo sapiens, UniProt Q12809)", 4.49],
  ["CC(c1ccccc1)N1C(=O)c2ccccc2C1C(=O)NCc1ccccc1 (racemic)", "Voltage-gated inwardly rectifying potassium channel KCNH2 (Homo sapiens, UniProt Q12809)", "< 4.48"],
  ["O=C(NCc1ccncc1)C1c2ccccc2C(=O)N1Cc1ccccc1-c1ccccc1 (racemic)", "Voltage-gated inwardly rectifying potassium channel KCNH2 (Homo sapiens, UniProt Q12809)", "< 4.48"],
  ["Cc1c(O)ccc2c1C(=O)N(Cc1ccccc1-c1ccccc1)C2C(=O)NC(C)(C)C (single isomer, unassigned; enantiomer 2)", "Voltage-gated inwardly rectifying potassium channel KCNH2 (Homo sapiens, UniProt Q12809)", 4.59],
  ["Cc1c(NS(C)(=O)=O)ccc2c1C(=O)N(Cc1ccccc1-c1ccccc1)C2C(=O)NC(C)(C)C (racemic)", "Voltage-gated inwardly rectifying potassium channel KCNH2 (Homo sapiens, UniProt Q12809)", "< 4.48"]
]}

Measured pIC50 (Voltage-gated inwardly rectifying potassium channel KCNH2 (Homo sapiens, UniProt Q12809)), entry Cc1c(OS(C)(=O)=O)ccc2c1C(=O)N(Cc1ccccc1-c1ccccc1)C2C(=O)NC(C)(C)C (racemic) : < 4.49

Measured pIC50 (Voltage-gated inwardly rectifying potassium channel KCNH2 (Homo sapiens, UniProt Q12809)), entry CC(C)(C)NC(=O)C1c2ccccc2C(=O)N1Cc1ccc(F)cc1-c1ccc(F)cc1 (stereo not drawn) : < 4.48

Measured pIC50 (Voltage-gated inwardly rectifying potassium channel KCNH2 (Homo sapiens, UniProt Q12809)), entry CC(C)(C)NC(=O)C1c2ccccc2C(=O)N1Cc1cc(F)ccc1-c1ccccc1 (single isomer, unassigned; enantiomer 1) : < 4.48
